# System: SF-295 CNS
# measurement_protocol: NCI-60 one-dose screen, 48 h
# condition_description: 10 µM unless noted
This is part of a sample that, as a whole, favours compounds with a hit. Of some 83,000 tested, about 20% had one in any assay. Calls of active or inactive are those of the source. The calls were made as follows: active = growth percent below 10; inactive = the rest.
Possible outcomes: active, inactive

compound_structure_string	tested_system	answer_label
COc1ccc(-c2cc(-c3ccccc3)nc(NCCNc3ccnc4cc(Cl)ccc34)n2)cc1	SF-295 CNS	active
C[n+]1c2ccccc2nc2c(N)cc(N)cc21	SF-295 CNS	inactive
Cc1cc(NN=C(c2ccc(O)cc2)c2ccc(O)cc2)c([N+](=O)[O-])cc1[N+](=O)[O-]	SF-295 CNS	inactive
O=C(Nc1ccc(C(=O)/C=C/c2ccc(N3CCOCC3)cc2)cc1)Nc1ccc([N+](=O)[O-])cc1	SF-295 CNS	inactive
Cc1ccc(NC(=O)N[C@@H](Cc2cc(F)cc(F)c2)C(=O)N[C@@H]2C(=O)N3CCC[C@H]3C(=O)N3CCCC[C@H]3C(=O)N[C@@H](C)C(=O)N3C[C@H](C)C[C@H]3C(=O)O[C@H]2C)cc1	SF-295 CNS	inactive
CCN=Cc1c(O)c(O)c(C(C)C)c2cc(C)c(-c3c(C)cc4c(C(C)C)c(O)c(O)c(C=NCC)c4c3O)c(O)c12	SF-295 CNS	inactive
C=C(C)[C@@H]1CC[C@]2(C(N)=O)CC[C@]3(C)[C@H](CC[C@@H]4[C@@]5(C)C/C(=C/c6cccnc6)C(=O)C(C)(C)[C@@H]5CC[C@]43C)[C@@H]12	SF-295 CNS	active
Nc1cc(NN=C(c2ccc(O)cc2)c2ccc(O)cc2)c([N+](=O)[O-])cc1[N+](=O)[O-]	SF-295 CNS	inactive
N/C(=N\c1nc2ccccc2[nH]1)NC(=O)Cc1cccc2ccccc12	SF-295 CNS	inactive
Cc1ccc(S(=O)(=O)NCCCNc2nccc(-c3c(-c4cccc(F)c4)nc4occn34)n2)cc1	SF-295 CNS	inactive
O=C(Nc1cccc(C2=NCCN2)c1)c1cccc(C(=O)Nc2cccc(C3=NCCN3)c2)c1	SF-295 CNS	inactive
NS(=O)(=O)c1ccc(CCN2C(=O)/C(=C\c3ccccc3)C=C2c2ccc(Cl)cc2)cc1	SF-295 CNS	inactive
COc1cc2c(c(Br)c1N)-c1cc(Br)c(N)cc1C2=O	SF-295 CNS	inactive
C=C(C)[C@@H]1CC[C@]2(C(=O)OC)CC[C@]3(C)[C@H](CC[C@@H]4[C@@](C)(CCc5nn[nH]n5)[C@H](C(=C)C)CC[C@]43C)[C@@H]12	SF-295 CNS	active
C=C1C(=O)O[C@H]2[C@H]1CC/C(COC(=O)NCc1ccc(Cn3c(=O)sn(-c4ccc(Cl)cc4)c3=O)cc1)=C\CC[C@@]1(C)O[C@@H]21	SF-295 CNS	inactive
O=c1cc(-c2ccccc2)oc2cc(OCc3cn(Cc4ccc(F)cc4)nn3)cc(O)c12	SF-295 CNS	inactive
O=C1Nc2ccccc2/C1=C/C(=O)c1ccc(N2CCCC2)cc1	SF-295 CNS	inactive
CCN=C1C=CC(=C(c2ccc(N(CC)CC)cc2)c2ccc(N(CC)CC)cc2)c2ccccc21	SF-295 CNS	active
C=C(CC(=O)OC)C(C)=O	SF-295 CNS	inactive
Cc1ccc(-n2nc3n(/c2=N\C(=O)NS(=O)(=O)c2ccc(C)cc2)CCN3C2=NCCN2)cc1	SF-295 CNS	inactive
O=C(OCc1ccc2c(Cl)cc(Cl)c(O)c2n1)N1CCN(C(=O)c2cc3cc(F)ccc3[nH]2)CC1	SF-295 CNS	inactive
O=C(Nc1ccc(F)cc1)c1ccccc1	SF-295 CNS	inactive
